Format: in vivo
Reported Conditions: male, human, plasma, 600 mg, apparent terminal half-life, plasma macitentan; two higher dose groups (300 and 600 mg)
Readout Name: half-life

Bench note: what half-life did CCCNS(=O)(=O)Nc1ncnc(OCCOc2ncc(Br)cn2)c1-c1ccc(Br)cc1 [macitentan] show? ~16 h

---

Format: in vivo
Reported Conditions: male, human, plasma, tmax in most subjects, plasma macitentan; individual values
Readout Name: Tmax

Bench note: what Tmax did CCCNS(=O)(=O)Nc1ncnc(OCCOc2ncc(Br)cn2)c1-c1ccc(Br)cc1 [macitentan] show? 4 to 12 h
